The reported measurements were obtained from patent US20150152083A1.

Each entry below carries its reported log10(IC50).
- Study target: EGFR (L858R) (Homo sapiens, UniProt P00533, L858R)
- Construct: host or cells: NIH3T3
- Sequence (P00533 25-1210 L858R): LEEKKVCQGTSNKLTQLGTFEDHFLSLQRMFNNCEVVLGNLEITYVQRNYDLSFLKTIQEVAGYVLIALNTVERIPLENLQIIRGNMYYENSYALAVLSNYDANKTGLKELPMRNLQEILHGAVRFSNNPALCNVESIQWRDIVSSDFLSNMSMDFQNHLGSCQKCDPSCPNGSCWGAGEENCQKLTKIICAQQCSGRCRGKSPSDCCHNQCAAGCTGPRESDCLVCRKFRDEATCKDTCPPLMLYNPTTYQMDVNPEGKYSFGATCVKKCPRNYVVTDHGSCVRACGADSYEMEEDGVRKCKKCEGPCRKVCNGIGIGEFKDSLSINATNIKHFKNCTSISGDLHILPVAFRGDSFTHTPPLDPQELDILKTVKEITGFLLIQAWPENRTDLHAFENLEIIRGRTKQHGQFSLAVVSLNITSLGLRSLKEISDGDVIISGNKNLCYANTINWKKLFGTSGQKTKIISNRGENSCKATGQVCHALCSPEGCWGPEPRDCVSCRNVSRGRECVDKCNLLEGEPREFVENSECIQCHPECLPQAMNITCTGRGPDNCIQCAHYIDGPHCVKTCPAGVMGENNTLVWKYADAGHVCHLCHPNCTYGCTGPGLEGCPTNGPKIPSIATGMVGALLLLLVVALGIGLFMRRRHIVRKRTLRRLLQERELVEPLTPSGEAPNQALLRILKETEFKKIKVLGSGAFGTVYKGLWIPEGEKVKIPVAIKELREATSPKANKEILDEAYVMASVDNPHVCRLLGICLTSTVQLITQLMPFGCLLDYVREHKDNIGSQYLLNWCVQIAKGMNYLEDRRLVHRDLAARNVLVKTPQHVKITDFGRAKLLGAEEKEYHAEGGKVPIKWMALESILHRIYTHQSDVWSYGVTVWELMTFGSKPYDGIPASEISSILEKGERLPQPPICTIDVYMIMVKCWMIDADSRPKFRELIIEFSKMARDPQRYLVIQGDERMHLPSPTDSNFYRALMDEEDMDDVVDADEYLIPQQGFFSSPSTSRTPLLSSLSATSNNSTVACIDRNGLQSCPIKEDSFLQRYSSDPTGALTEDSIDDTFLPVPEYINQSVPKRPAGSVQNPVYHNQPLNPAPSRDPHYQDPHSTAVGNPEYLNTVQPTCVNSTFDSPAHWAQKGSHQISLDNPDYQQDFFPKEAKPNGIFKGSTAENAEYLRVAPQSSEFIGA
- Procedure text: EGFR target modulation in engineered NIH3T3 cell lines (phospho-EGFR AlphaLISA)
- Format: cell-based
- Measurement context: NIH3T3 cells expressing human EGFR L858R; 3 hours compound
Assay readout: log10(IC50) (log10 of the value in µM)

[[record]]
compound = "C=CC(=O)Nc1cccc(-n2c(NC(=O)c3ccc(C)cc3)nc3cc(C)ccc32)c1 [Example 2-3]"
measured_value = -0.11

[[record]]
compound = "C=CC(=O)Nc1cccc(-n2c(NC(=O)c3ccc(F)cc3)nc3cc(C)ccc32)c1 [Example 1]"
measured_value = -1.28

[[record]]
compound = "C=CC(=O)Nc1cccc(-n2c(NC(=O)c3ccc(Cl)c(Cl)c3)nc3cc(C)ccc32)c1 [Example 2-4]"
measured_value = -0.48

[[record]]
compound = "C=CC(=O)Nc1cccc(-n2c(NC(=O)c3ccc(F)c(F)c3)nc3cc(C)ccc32)c1 [Example 2-2]"
measured_value = -0.70

[[record]]
compound = "C=CC(=O)N[C@H]1CCCC(n2c(NC(=O)c3cccc(C(F)(F)F)c3)nc3cccc(C)c32)C1 (mixture of isomers) [Example 6]"
measured_value = -0.16

[[record]]
compound = "C=CC(=O)Nc1cccc(-n2c(NC(=O)c3cccc(C(F)(F)F)c3)nc3cc(COC)ccc32)c1 [Example 5-1]"
measured_value = -0.07

[[record]]
compound = "C=CC(=O)N[C@@H]1CCC[C@H](n2c(NC(=O)c3cccc(C(F)(F)F)c3)nc3cc(C)ccc32)C1 (racemic) [Example 8-1]"
measured_value = -0.27

[[record]]
compound = "C=CC(=O)Nc1cccc(-n2c(NC(=O)c3cccc(C(F)(F)F)c3)nc3cccc(C)c32)c1 [Example 2-13]"
measured_value = -0.51

[[record]]
compound = "C=CC(=O)Nc1cccc(-n2c(NC(=O)c3cccc(C(F)(F)F)c3)nc3cc(CN4CCOCC4)ccc32)c1 [Example 5-3]"
measured_value = -0.60

[[record]]
compound = "C=CC(=O)Nc1cccc(-n2c(NC(=O)c3cccc(C)c3)nc3cc(C)ccc32)c1 [Example 2-5]"
measured_value = 0.11

[[record]]
compound = "C=CC(=O)N[C@H]1CCC[C@@H](n2c(NC(=O)c3cccc(C(F)(F)F)c3)nc3cc(C)ccc32)C1 (single isomer, unassigned) [Example 9-2A]"
measured_value = -0.27

[[record]]
compound = "C=CC(=O)N[C@@H]1CCC[C@H](n2c(NC(=O)c3cccc(C(F)(F)F)c3)nc3cccc(C)c32)C1 (racemic) [Example 7]"
measured_value = -0.55

[[record]]
compound = "C=CC(=O)Nc1cccc(-n2c(NC(=O)c3cccc(C(F)(F)F)c3)nc3cc(COCC)ccc32)c1 [Example 4]"
measured_value = 0.04

[[record]]
compound = "C=CC(=O)Nc1cccc(-n2c(NC(=O)c3cccc(Oc4ccccc4)c3)nc3cc(C)ccc32)c1 [Example 2-6]"
measured_value = -0.57

[[record]]
compound = "C=CC(=O)Nc1cccc(-n2c(NC(=O)c3cccc(F)c3)nc3cc(C)ccc32)c1 [Example 2-1]"
measured_value = -0.48

[[record]]
compound = "C=CC(=O)Nc1cccc(-n2c(NC(=O)c3ccc4ccccc4c3)nc3cc(C)ccc32)c1 [Example 2-8]"
measured_value = -0.19


---

- Study target: EGFR(L858R/T790M) (Homo sapiens, UniProt P00533, L858R/T790M)
- Procedure text: EGFR target modulation in engineered NIH3T3 cell lines (phospho-EGFR AlphaLISA)
- Format: cell-based
- Design: host or cells: NIH3T3
- Measurement context: NIH3T3 cells expressing human EGFR L858R/T790M; 3 hours compound
- Sequence (P00533 25-1210 T790M/L858R): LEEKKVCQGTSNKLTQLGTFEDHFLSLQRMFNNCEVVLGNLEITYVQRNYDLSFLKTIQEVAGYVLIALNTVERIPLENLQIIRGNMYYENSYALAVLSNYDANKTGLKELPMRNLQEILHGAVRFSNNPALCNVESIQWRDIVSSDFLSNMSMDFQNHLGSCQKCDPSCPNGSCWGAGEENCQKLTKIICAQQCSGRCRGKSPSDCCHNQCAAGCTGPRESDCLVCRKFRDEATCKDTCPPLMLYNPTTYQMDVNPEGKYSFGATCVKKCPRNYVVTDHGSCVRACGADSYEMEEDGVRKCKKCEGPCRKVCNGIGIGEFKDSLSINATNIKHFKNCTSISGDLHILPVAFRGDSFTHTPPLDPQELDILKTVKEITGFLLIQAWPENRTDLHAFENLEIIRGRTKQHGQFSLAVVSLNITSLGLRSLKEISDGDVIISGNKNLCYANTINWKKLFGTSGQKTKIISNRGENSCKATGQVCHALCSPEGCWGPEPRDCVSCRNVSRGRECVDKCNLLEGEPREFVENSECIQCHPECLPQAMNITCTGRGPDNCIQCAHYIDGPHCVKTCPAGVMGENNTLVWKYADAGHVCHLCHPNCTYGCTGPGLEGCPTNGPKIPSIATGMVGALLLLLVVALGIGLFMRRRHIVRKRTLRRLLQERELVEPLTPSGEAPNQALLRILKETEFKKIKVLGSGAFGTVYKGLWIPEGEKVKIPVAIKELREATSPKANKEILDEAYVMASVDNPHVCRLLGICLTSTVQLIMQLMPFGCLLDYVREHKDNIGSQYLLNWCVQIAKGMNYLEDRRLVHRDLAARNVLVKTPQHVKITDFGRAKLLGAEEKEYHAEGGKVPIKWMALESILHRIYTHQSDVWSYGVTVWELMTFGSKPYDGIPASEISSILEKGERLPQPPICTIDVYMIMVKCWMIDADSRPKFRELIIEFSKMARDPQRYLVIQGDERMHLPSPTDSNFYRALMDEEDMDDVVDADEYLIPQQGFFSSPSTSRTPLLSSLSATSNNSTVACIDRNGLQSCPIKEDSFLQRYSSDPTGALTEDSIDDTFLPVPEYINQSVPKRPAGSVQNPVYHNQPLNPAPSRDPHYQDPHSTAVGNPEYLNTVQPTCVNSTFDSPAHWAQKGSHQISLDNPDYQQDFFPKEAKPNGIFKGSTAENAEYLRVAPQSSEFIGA
Note to self: use Criterion met only for IC50 readings below 0.1 µM; a reading exactly at 0.1 µM still gets Criterion not met.

[[record]]
molecule = "C=CC(=O)NCCCn1c(NC(=O)c2cccc(C(F)(F)F)c2)nc2cc(C)ccc21 [Example 8-4]"
answer_label = "Criterion not met"

[[record]]
molecule = "C=CC(=O)Nc1cccc(-n2c(NC(=O)c3cccc(C(F)(F)F)c3)nc3cccc(C)c32)c1 [Example 2-13]"
answer_label = "Criterion met"

[[record]]
molecule = "C=CC(=O)Nc1cccc(-n2c(NC(=O)c3cccc(C(F)(F)F)c3)nc3cc(C)ccc32)c1 [Example 2-9]"
answer_label = "Criterion met"

[[record]]
molecule = "C=CC(=O)N[C@H]1CCCC(n2c(NC(=O)c3cccc(C(F)(F)F)c3)nc3cccc(C)c32)C1 (mixture of isomers) [Example 6]"
answer_label = "Criterion not met"

[[record]]
molecule = "C=CC(=O)Nc1cccc(-n2c(NC(=O)c3ccc(C)cc3)nc3cc(C)ccc32)c1 [Example 2-3]"
answer_label = "Criterion not met"

[[record]]
molecule = "C=CC(=O)Nc1cccc(-n2c(NC(=O)c3ccc4ccccc4c3)nc3cc(C)ccc32)c1 [Example 2-8]"
answer_label = "Criterion not met"


---

- Study target: EGFR(L858R/T790M) (Homo sapiens, UniProt P00533, L858R/T790M)
- Procedure text: EGFR biochemical assay (HTRF), IC50 determination
- Set-up: purchased from Carna (GST-a.a. 669-1210); purchased Carna
- Measurement context: EGFR (L858R/T790M) IC50 (μM) 90 min pre-incubation, 90 min pre-incubation; 10 μM ATP
- Sequence (P00533 669-1210 T790M/L858R): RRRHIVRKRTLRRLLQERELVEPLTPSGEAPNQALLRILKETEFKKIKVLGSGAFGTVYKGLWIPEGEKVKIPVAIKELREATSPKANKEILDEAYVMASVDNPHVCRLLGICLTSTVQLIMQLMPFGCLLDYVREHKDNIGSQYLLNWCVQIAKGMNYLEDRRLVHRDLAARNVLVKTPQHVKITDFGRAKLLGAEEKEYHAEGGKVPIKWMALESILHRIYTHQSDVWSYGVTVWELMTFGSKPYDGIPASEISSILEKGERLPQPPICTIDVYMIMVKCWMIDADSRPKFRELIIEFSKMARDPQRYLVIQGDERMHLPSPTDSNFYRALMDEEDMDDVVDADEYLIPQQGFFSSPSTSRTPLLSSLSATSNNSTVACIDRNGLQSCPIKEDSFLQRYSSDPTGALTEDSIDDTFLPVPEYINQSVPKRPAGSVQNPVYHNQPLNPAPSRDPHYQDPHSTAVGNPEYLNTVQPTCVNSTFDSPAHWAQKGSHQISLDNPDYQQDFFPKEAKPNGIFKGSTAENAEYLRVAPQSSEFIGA
Okay, here is how we bin by IC50: A = under 0.004 µM, B = from 0.004 µM up to 0.1 µM, C = 0.1 µM and over

[[record]]
molecule = "C=CC(=O)Nc1cccc(-n2c(NC(=O)c3cccc(C(F)(F)F)c3)nc3cc(CN4CCOCC4)ccc32)c1 [Example 5-3]"
study_target = "EGFR(L858R/T790M) (Homo sapiens, UniProt P00533, L858R/T790M)"
answer_label = "A"

[[record]]
molecule = "C=CC(=O)Nc1cccc(-n2c(NC(=O)c3ccc(F)c(F)c3)nc3cc(C)ccc32)c1 [Example 2-2]"
study_target = "EGFR(L858R/T790M) (Homo sapiens, UniProt P00533, L858R/T790M)"
answer_label = "A"

[[record]]
molecule = "C=CC(=O)Nc1cccc(-n2c(NC(=O)c3cccc(C(F)(F)F)c3)nc3cc(C)ccc32)c1 [Example 2-9]"
study_target = "EGFR(L858R/T790M) (Homo sapiens, UniProt P00533, L858R/T790M)"
answer_label = "B"

[[record]]
molecule = "C=CC(=O)N[C@H]1CC[C@H](n2c(NC(=O)c3cccc(C(F)(F)F)c3)nc3cc(C)ccc32)CC1 [Example 8-9]"
study_target = "EGFR(L858R/T790M) (Homo sapiens, UniProt P00533, L858R/T790M)"
answer_label = "C"

[[record]]
molecule = "C=CC(=O)N[C@@H]1CCC[C@H](n2c(NC(=O)c3cccc(C(F)(F)F)c3)nc3cccc(C)c32)C1 (racemic) [Example 7]"
study_target = "EGFR(L858R/T790M) (Homo sapiens, UniProt P00533, L858R/T790M)"
answer_label = "A"

[[record]]
molecule = "C=CC(=O)N[C@@H]1CCCC[C@H]1n1c(NC(=O)c2cccc(C(F)(F)F)c2)nc2cc(C)ccc21 [Example 8-7]"
study_target = "EGFR(L858R/T790M) (Homo sapiens, UniProt P00533, L858R/T790M)"
answer_label = "C"

[[record]]
molecule = "C=CC(=O)Nc1cccc(-n2c(NC(=O)c3cccc(-c4ccccc4)c3)nc3cc(C)ccc32)c1 [Example 2-7]"
study_target = "EGFR(L858R/T790M) (Homo sapiens, UniProt P00533, L858R/T790M)"
answer_label = "A"

[[record]]
molecule = "C=CC(=O)Nc1cccc(-n2c(NC(=O)c3cccc(Oc4ccccc4)c3)nc3cc(C)ccc32)c1 [Example 2-6]"
study_target = "EGFR(L858R/T790M) (Homo sapiens, UniProt P00533, L858R/T790M)"
answer_label = "A"

[[record]]
molecule = "C=CC(=O)N[C@H]1CC[C@@H](n2c(NC(=O)c3cccc(C(F)(F)F)c3)nc3cc(C)ccc32)CC1 [Example 8-8]"
study_target = "EGFR(L858R/T790M) (Homo sapiens, UniProt P00533, L858R/T790M)"
answer_label = "C"

[[record]]
molecule = "C=CC(=O)NCCn1c(NC(=O)c2cccc(C(F)(F)F)c2)nc2cc(C)ccc21 [Example 8-5]"
study_target = "EGFR(L858R/T790M) (Homo sapiens, UniProt P00533, L858R/T790M)"
answer_label = "C"

[[record]]
molecule = "C=CC(=O)Nc1cccc(-n2c(NC(=O)c3cccc(F)c3)nc3cc(C)ccc32)c1 [Example 2-1]"
study_target = "EGFR(L858R/T790M) (Homo sapiens, UniProt P00533, L858R/T790M)"
answer_label = "A"

[[record]]
molecule = "C=CC(=O)Nc1cccc(-n2c(NC(=O)c3ccc(Cl)c(Cl)c3)nc3cc(C)ccc32)c1 [Example 2-4]"
study_target = "EGFR(L858R/T790M) (Homo sapiens, UniProt P00533, L858R/T790M)"
answer_label = "B"

[[record]]
molecule = "C=CC(=O)Nc1cccc(-n2c(NC(=O)c3cccc(C(F)(F)F)c3)nc3cc(COC)ccc32)c1 [Example 5-1]"
study_target = "EGFR(L858R/T790M) (Homo sapiens, UniProt P00533, L858R/T790M)"
answer_label = "A"

[[record]]
molecule = "C=CC(=O)Nc1cccc(-n2c(NC(=O)c3ccc(F)cc3)nc3cc(C)ccc32)c1 [Example 1]"
study_target = "EGFR(L858R/T790M) (Homo sapiens, UniProt P00533, L858R/T790M)"
answer_label = "A"

[[record]]
molecule = "Cc1cc(C(=O)Nc2nc3cccc(Cl)c3n2-c2cc(NC(=O)/C=C/CN(C)C)ccc2C)ccn1 [Example 2-15]"
study_target = "EGFR(L858R/T790M) (Homo sapiens, UniProt P00533, L858R/T790M)"
answer_label = "C"

[[record]]
molecule = "C=CC(=O)N[C@H]1CCCC(n2c(NC(=O)c3cccc(C(F)(F)F)c3)nc3cccc(C)c32)C1 (mixture of isomers) [Example 6]"
study_target = "EGFR(L858R/T790M) (Homo sapiens, UniProt P00533, L858R/T790M)"
answer_label = "B"

[[record]]
molecule = "C=CC(=O)N[C@H]1CC[C@@H](n2c(NC(=O)c3cccc(C(F)(F)F)c3)nc3cc(C)ccc32)C1 (single isomer, unassigned) [Example 9-1A]"
study_target = "EGFR(L858R/T790M) (Homo sapiens, UniProt P00533, L858R/T790M)"
answer_label = "B"

[[record]]
molecule = "C=CC(=O)Nc1cc(-n2c(NC(=O)c3ccnc(C)c3)nc3cccc(Cl)c32)ccc1C [Example 2-17]"
study_target = "EGFR(L858R/T790M) (Homo sapiens, UniProt P00533, L858R/T790M)"
answer_label = "B"

[[record]]
molecule = "C=CC(=O)NC1CCC(n2c(NC(=O)c3cccc(C(F)(F)F)c3)nc3cc(C)ccc32)C1 (racemic) [Example 8-3]"
study_target = "EGFR(L858R/T790M) (Homo sapiens, UniProt P00533, L858R/T790M)"
answer_label = "C"

